Assay: chemical genetic growth profiling, strain panel (AID 1159580);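 note: tested at 20 µM; growth read once vehicle control cultures reached saturation at 30 °C; 1 = growth at the plate median or of vehicle wells; lower values mean less growth of the strain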
Settings: S. cerevisiae deletion strains, growth OD, locus YDR069C, strain doa4, active compounds read low
Out of some 5,500 compounds screened, about 2,000 (36%) were called active. Not shown: some 18% with an inconclusive outcome. This is one part of the list.
PARAMETER MEASURED: normalized growth
Keep it simple and answer with nothing but the number.

Would you please look over these solved cases?
# COMPOUND, MEASURED VALUE
rows = [
    ("O=C(O)[C@H](O)[C@@](O)(Cc1ccc(O)cc1)C(=O)O", 1.01),
    ("CCC1(CC)C(=O)C=CNC1=O", 1.02),
    ("CN1CCN(CC(=O)N2c3ccccc3C(=O)Nc3cccnc32)CC1", 0.989),
    ("OCCN1CCN(CCCN2c3ccccc3Sc3ccc(C(F)(F)F)cc32)CC1", 0.863),
    ("CCc1cccc2c3c([nH]c12)C(CC)(CC(=O)O)OCC3 (centres undefined)", 0.976),
    ("CC(=O)[C@@]1(O)CCC2C3CCC4=CC(=O)CC[C@]4(C)C3CC[C@@]21C (some centres undefined)", 0.996),
]

q: Indicate its recorded normalized growth; the compound in question is CC(=O)OCC(=O)[C@@]12OC3(CCCC3)O[C@@H]1CC1C3CCC4=CC(=O)C=C[C@]4(C)[C@@]3(F)[C@@H](O)C[C@@]12C (some centres undefined)
a: 1.01

q: Indicate its recorded normalized growth; the compound in question is "O=C1c2ccccc2C(=O)C1c1ccccc1"
a: 0.996

q: Indicate its recorded normalized growth; the compound in question is COc1c2c(cc3c1OCO3)C13C=C[C@H](OC)CC1N(C2)CC3O (some centres undefined)
a: 0.963

----------
Assay: chemical genetic growth profiling, strain panel (AID 1159580);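 note: tested at 20 µM; growth read once vehicle control cultures reached saturation at 30 °C; 1 = growth at the plate median or of vehicle wells; lower values mean less growth of the strain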
Settings: S. cerevisiae deletion strains, growth OD, locus YPL055C, strain LGE1, active compounds read low
Hit rate of the full screen: of about 5,500 compounds, about 2,000 (36%) were called active. Another 18% or so got no clear call; they are omitted. The list shows a part of the results. *1 amine or outer side, *2 acyl side, *3 side chain or, on linkers, in order; H or OH if unused. Where a SMILES comes first, the peptide text is derived from it. Bridges are numbered along the chain shown (N, C = ends). [ ]: non-standard residue; d: D form. The star is where a group is joined. ξ: configuration not given here. ΔAla(E,3-NHCONH2) = NC(=O)N/C=C(/N)C(=O)O; X2 = NC1=NCCC(C(N[*:1])C(=O)[*:2])N1; ξβ3hOrn = NCCCC(N)CC(=O)*; Dap = NC[CH](N)C(=O)O
Reported normalized growth values for the following molecules.
Keep it simple and answer with nothing but the number.

Would you please look over these solved cases?
# MOLECULE, PARAMETER MEASURED, MEASURED VALUE
rows = [
    ("COC1(C)CCC2OC2(C)CCC2C1CC2(C)C (stereo not drawn)", "normalized growth", 1),
    ("CC(=O)CC1CCCCN1 (stereo not drawn)", "normalized growth", 1.04),
    ("COc1cc2nc(-c3cccs3)oc(=O)c2cc1OC", "normalized growth", 1.11),
    ("CC(=O)[C@@]1(O)CCC2C3CCC4=CC(=O)CC[C@]4(C)C3CC[C@@]21C (stereo partly drawn)", "normalized growth", 1.02),
    ("NCCCC(N)CC(=O)NCC1NC(=O)C(CO)NC(=O)C(N)CNC(=O)C(C2CCN=C(N)N2)NC(=O)/C(=C\\NC(N)=O)NC1=O (stereo not drawn) (H-[Dap]S[Dap](ξβ3hOrn)[ΔAla(E,3-NHCONH2)][X2]; lactam 1-C; configuration not given here)", "normalized growth", 1.03),
    ("CC(C)(C)c1cc(-c2cc(C(F)(F)F)[nH]n2)c2c(c1)C(C)(C)CC2", "normalized growth", 0.985),
]

q: Indicate its recorded normalized growth; the molecule in question is "COc1cccc(C(=O)N/N=C(/C)c2ccccc2O)c1"
a: 0.991

q: Indicate its recorded normalized growth; the molecule in question is "CC1=NN(c2cccc(S(N)(=O)=O)c2)C(=O)C1"
a: 1.03

----------
Reported normalized growth values for the following compounds.
Assay: chemical genetic growth profiling, strain panel (AID 1159580);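 note: tested at 20 µM; growth read once vehicle control cultures reached saturation at 30 °C; 1 = growth at the plate median or of vehicle wells; lower values mean less growth of the strain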
Conditions: S. cerevisiae deletion strains, growth OD, locus YJL134W, strain LCB3, active compounds read low
About 2,000 (36%) of roughly 5,500 compounds were called active. Another 18% or so got no clear call; they are omitted. The list shows a part of the results.
Keep it simple and answer with nothing but the number.

Would you please look over these solved cases?
# COMPOUND, MEASURED VALUE
rows = [
    ("CCOc1ccc(C(=O)c2ccc(O)c(O)c2O)cc1", 0.968),
    ("CO[C@@]1(NC(=O)Cc2cccs2)C(=O)N2C(C(=O)O)=C(COC(N)=O)CS[C@@H]21", 1.01),
    ("CC(=O)Oc1cccc2c1C(=O)c1c(OC(C)=O)cc(C(=O)O)cc1C2=O", 1.01),
]

q: Indicate its recorded normalized growth; the compound in question is "C=C(C)[C@H]1Cc2c(ccc3c2O[C@@H]2COc4cc(OC)c(OC)cc4[C@@H]2C3=O)O1"
a: 1.01

q: Indicate its recorded normalized growth; the compound in question is CCCCCCCCCCCCCCCCCCOCC(O)CO (centres undefined)
a: 0.997

q: Indicate its recorded normalized growth; the compound in question is "O=c1c(O)c(-c2ccc(O)c(O)c2)oc2cc(O)ccc12"
a: 1

q: Indicate its recorded normalized growth; the compound in question is "COc1cc(NS(=O)(=O)c2ccc(N)cc2)ncn1"
a: 0.992

q: Indicate its recorded normalized growth; the compound in question is "Cc1cc(=O)n(-c2ccccc2)n1C"
a: 1.01

q: Indicate its recorded normalized growth; the compound in question is "COc1ccc(C2C(=O)c3ccccc3C2=O)cc1"
a: 1

q: Indicate its recorded normalized growth; the compound in question is "Cc1c(NC(=O)c2cccnc2)c(=O)n(-c2ccccc2)n1C"
a: 0.995

q: Indicate its recorded normalized growth; the compound in question is "COc1cc(-c2oc3cc(O)ccc3c(=O)c2O)cc(OC)c1OC"
a: 0.996

q: Indicate its recorded normalized growth; the compound in question is "COc1cnc(NS(=O)(=O)c2ccc(N)cc2)nc1"
a: 0.995

q: Indicate its recorded normalized growth; the compound in question is "COc1cc2cc3c4cc(OC)c(OC)cc4cc[n+]3c(C)c2cc1OC"
a: 1.01

q: Indicate its recorded normalized growth; the compound in question is "Cc1cc(C(C)(C)C)c(O)c(C)c1CC1=NCCN1"
a: 0.997

q: Indicate its recorded normalized growth; the compound in question is "Cc1cc(C(C)(C)C)cc(C)c1CC1=NCCN1"
a: 1.01

q: Indicate its recorded normalized growth; the compound in question is NC1CC1c1ccccc1 (centres undefined)
a: 1.02

q: Indicate its recorded normalized growth; the compound in question is NC1C[C@H]1c1ccccc1 (some centres undefined)
a: 1

q: Indicate its recorded normalized growth; the compound in question is NCC1OC(OC2C(CO)OC(OC3C(O)C(N)CC(N)C3OC3OC(CO)C(O)CC3N)C2O)C(N)C(O)C1OC1OC(CO)C(O)C(O)C1O (centres undefined)
a: 0.992

----------
Experiment: chemical genetic growth profiling, strain panel (AID 1159580);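 note: tested at 20 µM; growth read once vehicle control cultures reached saturation at 30 °C; 1 = growth at the plate median or of vehicle wells; lower values mean less growth of the strain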
Conditions: S. cerevisiae deletion strains, growth OD, locus YER016W, strain bim1, active compounds read low
Screen size: about 5,500 compounds; about 2,000 (36%) were called active. Inconclusive results (about 18%) are left out. The list shows a part of the results.
PARAMETER MEASURED: normalized growth

Would you please look over these solved cases?
# COMPOUND, normalized growth
records = [
    ("CC(=O)OC[C@H]1O[C@@H](Oc2cc(OC(C)=O)c3c(=O)cc(-c4ccc(OC(C)=O)cc4)oc3c2)[C@H](OC(C)=O)[C@@H](OC(C)=O)[C@@H]1OC(C)=O", "1.02 (inactive)"),
    ("CN1CCN(CCCN2c3ccccc3Sc3ccc(C(F)(F)F)cc32)CC1", "0.0723 (active)"),
    ("CC(NCCC(c1ccccc1)c1ccccc1)c1ccccc1 (stereo not drawn)", "1 (inactive)"),
]

q: Indicate its recorded normalized growth; the compound in question is "CNCC[C@@H](Oc1ccccc1)c1ccccc1"
a: 0.978 (inactive)

q: Indicate its recorded normalized growth; the compound in question is "OCCN1CCN(CCCN2c3ccccc3Sc3ccc(C(F)(F)F)cc32)CC1"
a: 0.979 (inactive)

q: Indicate its recorded normalized growth; the compound in question is "C=C(C)[C@H]1Cc2c(ccc3c2O[C@@H]2COc4cc(OC)c(OC)cc4[C@@H]2C3=O)O1"
a: 0.986 (inactive)

q: Indicate its recorded normalized growth; the compound in question is "CNS(=O)(=O)c1ccc(NC(=O)c2ccccc2C(=O)O)cc1"
a: 1.01 (inactive)

q: Indicate its recorded normalized growth; the compound in question is "CC[C@H]1OC(=O)[C@H](C)[C@@H](O[C@H]2C[C@@](C)(OC)[C@@H](O)[C@H](C)O2)[C@H](C)[C@@H](O[C@@H]2O[C@H](C)C[C@H](N(C)C)[C@H]2O)[C@](C)(O)C[C@@H](C)[C@@H]2N[C@@H](COCCOC)O[C@H]([C@H]2C)[C@]1(C)O"
a: 0.987 (inactive)

Reference for the values: PubChem BioAssay AID1159580
